The reported measurements were obtained from ChEMBL document CHEMBL1201862.

- Test system: LOX IMVI
- assay_text: NCI tumour cell line growth inhibition, 48 h
Activity calls are given as the source filed them. Cut-off read from the data, not from the text of the source: active = GI50 up to about 1.1 µM and inactive = higher.
I would appreciate it if you answered using one of these outcomes: class 1 (active), class 0 (inactive)

Here are 8 compounds together with their reported answers.
[[record]]
compound = "CCC/C=C1\\CCC(CN(C)C)C1=O (stereo not given)"
class_label = "class 0"

[[record]]
compound = "CN(C)/C=N\\c1ccn(CCO)c(=O)n1"
class_label = "class 0"

[[record]]
compound = "COc1ccc2c(c1)c1c3c(ccc4ncn2c43)N(CCN(C)C)CCN=1"
class_label = "class 1"

[[record]]
compound = "O=c1[nH]c(=O)n(COCCO)cc1-c1ccccc1"
class_label = "class 0"

[[record]]
compound = "CC(=O)CC(=O)/C=C/c1cccs1"
class_label = "class 0"

[[record]]
compound = "N#CC(C(=O)CCC(=O)Nc1cccc(C(F)(F)F)c1)c1ccccc1 (stereo not given)"
class_label = "class 0"

[[record]]
compound = "CC1(C)[C@@H]2C[C@H]1C(Cc1ccc(C[C@H]3c4cc(-c5ccccn5)ncc4[C@H]4C[C@@H]3C4(C)C)cc1)c1cc(-c3ccccn3)ncc12 (stereo not given in full)"
class_label = "class 1"

[[record]]
compound = "CCCC(=O)Nc1cc([N+](=O)[O-])c([N+](=O)[O-])cc1OC"
class_label = "class 0"


Query block: Short answer needed: outcome of this test for O=Cc1ccccc1OCCOc1cc(OCCOc2ccccc2C=O)c(OCCOc2ccccc2C=O)cc1OCCOc1ccccc1C=O ?
Result block: class 0

Query block: Short answer needed: outcome of this test for C/C=C1/C(=O)O[C@]23C=C[C@@H]4C(C(=O)OC)=CO[C@H](O[C@@H]12)[C@@H]43 ?
Result block: class 1

Query block: Short answer needed: outcome of this test for Cc1ccc(C(=O)C(Cl)C(Cl)c2ccc(C)cc2)cc1 (stereo not given) ?
Result block: class 0

Query block: Short answer needed: outcome of this test for COC(=O)C(=O)C(C(=O)C(N)=O)c1nc2ccc(C(=O)c3ccccc3)cc2nc1O (stereo not given) ?
Result block: class 0

Query block: Short answer needed: outcome of this test for C=C(C=O)CCCC(C)[C@@H]1CCC23CC12CCC1[C@@]2(C)CCC(OC(C)=O)C(C)(C)C2CC(OC2OC(COC(C)=O)C(O)C(O)C2O)[C@]13C (stereo not given in full) ?
Result block: class 1

Query block: Short answer needed: outcome of this test for O=S1(=O)COc2ccccc2-c2ncncc21 ?
Result block: class 0

Query block: Short answer needed: outcome of this test for C/C(=C1/CCC/C(=C(/C)c2ccccc2)C1=O)c1ccccc1 ?
Result block: class 0

Query block: Short answer needed: outcome of this test for COC(=O)CC1N/C(=N\C#N)N(CCc2c[nH]c3ccccc23)C1=O (stereo not given) ?
Result block: class 0

Query block: Short answer needed: outcome of this test for NC(=O)CN1C=CCC(C(N)=O)=C1 [CARICOTAMIDE] ?
Result block: class 0

Query block: Short answer needed: outcome of this test for C[C@@H](CC(O)C(O)C(C)(C)O)C1CCC23CC12CCC1[C@@]2(C)CCC(=O)C(C)(C)C2CC(OC2OC(CO)C(O)C(O)C2O)[C@]13C (stereo not given in full) ?
Result block: class 0

Query block: Short answer needed: outcome of this test for CC(=O)Nc1ccc(C(=O)N2N=C(C)/C(=C/c3cccc([N+](=O)[O-])c3)C2=O)cc1 ?
Result block: class 0

Query block: Short answer needed: outcome of this test for CCCCCn1cc2c3c(cccc31)C1C=C(C)CN(C)[C@@H]1C2.Cc1ccc(C(=O)OC(C(=O)O)C(OC(=O)c2ccc(C)cc2)C(=O)O)cc1 (stereo not given) ?
Result block: class 0

----------
- Test system: A549
- assay_text: NCI tumour cell line growth inhibition, 48 h
Calls of active or inactive are those of the source. Rule as the data show it: active = GI50 up to about 1.1 µM and inactive = higher.
assay_readout: GI50

Sample records with GI50:
[[record]]
compound = "COc1ccc2c3c([nH]c2c1[N+](=O)[O-])C(C)N(Cc1ccc([N+](=O)[O-])cc1)CC3 (centres undefined)"
subject_of_test = "A549"
experimental_value = "> 100 µM (inactive)"

[[record]]
compound = "Fc1cc2nc3n(c2cc1F)C(c1c(F)cccc1F)SC3 (centres undefined)"
subject_of_test = "A549"
experimental_value = "37.1 µM (inactive)"

[[record]]
compound = "COc1ccc(/C=N/NC(=O)C2=C(N)N(c3ccccc3)C(=C(C#N)C#N)S2)cc1"
subject_of_test = "A549"
experimental_value = "> 100 µM (inactive)"

[[record]]
compound = "COC1OC2COC1(OCc1ccccc1)C1OC(C)(C)OC21 (centres undefined)"
subject_of_test = "A549"
experimental_value = "> 100 µM (inactive)"

[[record]]
compound = "CC(=O)/N=C1\\N/C(=C\\c2ccc(Cl)cc2)C(=O)N1/C=C1\\C(=O)Oc2ccccc2C1=O"
subject_of_test = "A549"
experimental_value = "> 100 µM (inactive)"

[[record]]
compound = "COc1ccc(C2=NN=C3C(c4ccccc4)=Nc4ccccc4N3C2)cc1"
subject_of_test = "A549"
experimental_value = "35.7 µM (inactive)"

[[record]]
compound = "CCCCCCNc1n[nH]c(=O)c2c1nnn2Cc1ccccc1"
subject_of_test = "A549"
experimental_value = "> 100 µM (inactive)"

[[record]]
compound = "C/C=C1/C(=O)O[C@]23C=C[C@@H]4C(C(=O)OC)=CO[C@H](O[C@@H]12)[C@@H]43"
subject_of_test = "A549"
experimental_value = "3.47 µM (inactive)"


Would you mind giving GI50 for every compound in the list below?
1. Cc1nc(C(N)=S)sc1C(=O)CC(=O)C(=O)Nc1c(C(C)C)cccc1C(C)C
2. CC1=C(c2ccccc2)CON(c2ccccc2)C1

Result block:
1: 35.8 µM (inactive); 2: 54.5 µM (inactive)

Would you mind giving GI50 for every compound in the list below?
1. O=c1[nH]c(=O)n(COCCO)cc1-c1ccccc1
2. Cc1ccc2nc(/C=N/c3ccccc3Cl)cc(C)c2c1
3. Cc1ncc([N+](=O)[O-])n1CCNCCCCn1ccnc1[N+](=O)[O-]
4. COc1cc(C2C(Cl)C(=O)N2NC(=O)c2ccccc2O)ccc1O (centres undefined)

Result block:
["> 100 µM (inactive)", "> 100 µM (inactive)", "> 100 µM (inactive)", "> 100 µM (inactive)"]

----------
Kindly state GI50 for each of the entries shown.
- Tested on: MDA-MB-231
- assay_text: NCI tumour cell line growth inhibition, 48 h
Active and inactive are the calls of the source. No stated cut-off is given here; in the data, active = GI50 up to about 1.1 µM and inactive = higher.

Sample records with GI50:
[[record]]
compound = "O=C(CC(C(=O)c1cccs1)c1ccsc1)c1cccs1 (stereo unspecified)"
experimental_value = "> 100 µM (inactive)"

[[record]]
compound = "COc1cc(C2c3cc4c(cc3OC(NNC(N)=O)C2C)OCO4)cc(OC)c1O (stereo unspecified)"
experimental_value = "5.05 µM (inactive)"

[[record]]
compound = "O=c1ccc2nc3ccc(O)cc3oc-2c1"
experimental_value = "> 100 µM (inactive)"

[[record]]
compound = "OC(c1ccc(-c2ccccc2)cc1)(c1ccc(-c2ccccc2)cc1)c1ccc(-c2ccccc2)cc1"
experimental_value = "53.7 µM (inactive)"

[[record]]
compound = "O=C1NC(Cc2c[nH]c3ccccc23)C(=O)N2C(C3CCCCC3)c3[nH]c4ccccc4c3C[C@@H]12 (stereo partly specified)"
experimental_value = "15.1 µM (inactive)"


Query block: Would you mind telling me what GI50 value was observed for COc1ccc(/N=N/C(=O)NC(CC(C)C)C(=O)NC(C)C(=O)O)cc1 (stereo unspecified) ?
Result block: > 23.4 µM (inactive)

----------
- System: BT-549
- assay_text: NCI tumour cell line growth inhibition, 48 h
The source made the active and inactive calls. No stated cut-off is given here; in the data, active = GI50 up to about 1.1 µM and inactive = higher.
assay_readout: GI50

[[record]]
molecule = "CN1CCN(C(=S)N(C(=O)c2ccco2)c2ccccc2)CC1"
assay_readout = "GI50"
experimental_value = "> 100 µM (inactive)"

[[record]]
molecule = "O=C(Cc1ccccc1)NNc1nc(NNC(=O)c2ccncc2)nc(Nc2cccc(Cl)c2)n1"
assay_readout = "GI50"
experimental_value = "> 10 µM (inactive)"

[[record]]
molecule = "Cc1ccc([N+](=O)[O-])cc1S(=O)(=O)Nc1ccc(C2=NNC(c3ccccc3O)C2)cc1 (configuration not stated)"
assay_readout = "GI50"
experimental_value = "19.7 µM (inactive)"


Would you mind giving GI50 for every molecule in the list below?
1. Cc1ccc2c(c1)C(=O)c1[nH]c3ccc(F)cc3c1CO2
2. Cc1nc2cc(C(F)(F)F)ccc2[nH]c1=O
3. C/C(=N\NC(=S)Nc1ccc(Cl)cc1)c1nc2cccnc2[nH]1
4. NC(=O)C1CCCN1Cc1ccc2c(c1)OCO2 (configuration not stated)
5. CCCCCCCCCCCCCOCCOCCOCCCCC(O)CCCCCCCCCC1=C[C@H](C)OC1=O (some centres not stated)
6. O=C1C(CN2CCCC2)CCC1CN1CCCC1 (configuration not stated)

Result block:
1: 31.1 µM (inactive); 2: > 100 µM (inactive); 3: 1.76 µM (inactive); 4: > 100 µM (inactive); 5: 11.1 µM (inactive); 6: 17.5 µM (inactive)

Would you mind giving GI50 for every molecule in the list below?
1. COc1cccc(-c2cc(O)c3cc(N)ccc3n2)c1
2. C=C1CC[C@H](O)C(C)(C)[C@@H]1CC/C(C)=C/CC/C=C(\C)CC/C=C(\C)CCC=C(C)C
3. COc1ccc(/N=N/C(=O)NC(CC(C)C)C(=O)NC(C)C(=O)O)cc1 (configuration not stated)
4. O=c1c(C(c2ccccc2)c2c(O)oc3cc(O)ccc3c2=O)c(O)oc2cc(O)ccc12
5. Cc1cc(C)c2c(c1)CC1(Cc3cc(C)c(C)cc3C1=O)C2=O (configuration not stated)
6. C[C@@H](CC(O)C(O)C(C)(C)O)C1CCC23CC12CCC1[C@@]2(C)CCC(=O)C(C)(C)C2CC(OC2OC(CO)C(O)C(O)C2O)[C@]13C (some centres not stated)
7. CCOC(=O)C(CCN1CCC2(CC1)C(=O)N(C)CN2c1ccccc1)C(=O)OCC

Result block:
1: 5.81 µM (inactive); 2: > 100 µM (inactive); 3: 52.8 µM (inactive); 4: > 100 µM (inactive); 5: > 100 µM (inactive); 6: > 10 µM (inactive); 7: > 100 µM (inactive)

Would you mind giving GI50 for every molecule in the list below?
1. COc1ccc(/C=N/N2C(=O)c3c(N)c(C#N)c(-c4ccccc4)c(-c4ccccc4)c3C2=O)cc1
2. CNC(=O)c1cc2nc3ccccc3c(=O)n2c2ccccc12
3. COc1ccc(CC(=O)N2CCC3(C)CC(=O)CC=C23)cc1OC (configuration not stated)
4. Nc1nc(N)nc(-c2cnc3ccccc3c2)n1
5. C=[N+](CNC(=O)CNC(=O)C(Cc1ccc([N+](=O)[O-])cc1)NC(=O)OC(C)(C)C)C(=O)CNC(=O)C(Cc1ccc([N+](=O)[O-])cc1)NC(=O)OC(C)(C)C (configuration not stated)
6. CCN(CC)CCCNc1nc2ccccc2[n+]([O-])n1
7. CN(C)CCCNC(=O)c1cc(NC(=O)c2cc(NC(=O)[C@H]3C[C@@H]3C(=O)Nc3cc(C(=O)Nc4cc(C(=O)NCCCN(C)C)n(C)c4)n(C)c3)cn2C)cn1C
8. CCOC(=O)c1c(SCCN2CCCCC2)n(-c2ccccc2)c(=S)n(-c2ccccc2)c1=O

Result block:
["> 100 µM (inactive)", "> 10 µM (inactive)", "> 100 µM (inactive)", "> 100 µM (inactive)", "28.1 µM (inactive)", "> 100 µM (inactive)", "> 100 µM (inactive)", "16.6 µM (inactive)"]
